Would you kindly list Particle Size (nm) for each of these substances?
ASSAY_NOTES: QELS particle size and zeta potential of peptide DNA condensates, Example 6
Format: physicochemical
SETTINGS: charge ratio 4:1, 50 μg/ml DNA in HBM, 90°; average and SD of three; No particles formed
Where no end group is shown, it is not given here. The star is where a group is joined. Carboxymethyl = O=C(O)C*
Answers are plain numbers, in nm.

Cys-(Lys)4-Cys-(Lys)4-Cys (CKKKKCKKKKC) [Peptide 11] ... 738
Cys-His-(Lys)3-His-(Lys)2-His-Cys (CHKKKHKKHC) [Peptide 14] ... 183

Quick one: give me Particle Size (nm) for each item below, same order please.
1. Cys-(Lys)8-Cys (CKKKKKKKKC) [Peptide 7]
2. Cys-(Lys)3-Cys-(Lys)3-Cys (CKKKCKKKC) [Peptide 10]
3. Alk-S-Cys-Trp-Lys18 (C(Carboxymethyl)WKKKKKKKKKKKKKKKKKK) [AlkCWK18]
4. Cys-(Lys)2-Cys-(Lys)2-Cys (CKKCKKC) [Peptide 9]
5. Cys-Trp-Lys17-Cys (CWKKKKKKKKKKKKKKKKKC) [Peptide II]
6. Cys-(Lys)6-Cys (CKKKKKKC) [Peptide 6]

1. 53
2. 1375
3. 64
4. 1668
5. 53
6. 52

Working through the 2 substances below one at a time, give Particle Size (nm) for each.
1. Cys-(Lys)4-Cys (CKKKKC) [Peptide 5]
2. Cys-His-(Lys)6-His-Cys (CHKKKKKKHC) [Peptide 13]

38
97
